Test system: SF-268
Assay: NCI tumour cell line growth inhibition, 48 h
Calls of active or inactive are those of the source. Rule as the data show it: active = GI50 up to about 1.1 µM and inactive = higher.
Kindly supply the reported GI50 values for the records listed here.

Q) Tell me measured GI50 for O=C(Cc1ccc2ccccc2c1)NCc1ccc(C(=O)NCCc2ccccc2)cc1 please.
A) > 100 µM (inactive)

Q) Tell me measured GI50 for CC[C@]1(Cc2ccc(OC)c(OC)c2)[C@@H]2C[C@@H](C(=O)OC)ON2O[C@H](OC2CCCC2(c2ccccc2)c2ccccc2)[C@@H]1OC(C)=O (some centres undefined) please.
A) > 100 µM (inactive)

Q) Tell me measured GI50 for NC1=NN(c2ccccc2)C(=O)C1/C(=N\NC(=O)c1cc2ccccc2cc1O)C(=O)Nc1ccc(Cl)cc1 (centres undefined) please.
A) 12.7 µM (inactive)

Q) Tell me measured GI50 for N#Cc1c(O)c(/C=N/c2ncccn2)c(=O)n2c1[nH]c1ccccc12 please.
A) > 100 µM (inactive)

Q) Tell me measured GI50 for COc1ccc(/C=C2\SC(c3ccc(OC)cc3)N(NC(=O)Cc3ccccc3)C2=O)cc1 (centres undefined) please.
A) > 100 µM (inactive)

Q) Tell me measured GI50 for CN(Cc1cnc2nc(N)nc(N)c2n1)c1ccc(C(=O)NC(CCS(=O)(=O)O)C(=O)O)cc1 (centres undefined) please.
A) 0.465 µM (active)

Q) Tell me measured GI50 for O=c1c2cc(Cl)ccc2n2nnc3ccc(NCCNCCO)c1c32 please.
A) 2.74 µM (inactive)

Q) Tell me measured GI50 for CC(C)(CN1CCCCC1)C(=O)/C=C/c1ccc(/C=C/C(=O)C(C)(C)CN2CCCCC2)cc1 please.
A) 0.413 µM (active)

Q) Tell me measured GI50 for CCCCCCCCCCCC(=O)OCC1OC(n2cc(F)c(=O)[nH]c2=O)C(N)C(OC(=O)CCCCCCCCCCC)C1O (centres undefined) please.
A) > 100 µM (inactive)

====

System: LOX IMVI
Test: NCI tumour cell line growth inhibition, 48 h
Calls of active or inactive are those of the source. Rule as the data show it: active = GI50 up to about 1.1 µM and inactive = higher.
Kindly supply the reported GI50 values for the records listed here.

Q) Tell me measured GI50 for Cc1c(C(=O)/C=C/c2ccc(Cl)cc2)[n+]([O-])c2ccccc2[n+]1[O-] please.
A) 7.28 µM (inactive)

Q) Tell me measured GI50 for CC(=O)Oc1ccc(/C=C/C(=O)OCCCOC(=O)/C=C/c2ccc(OC(C)=O)c(OC(C)=O)c2)cc1OC(C)=O please.
A) > 100 µM (inactive)

Q) Tell me measured GI50 for CC(=O)OC(/C=C1/C=CC(=O)O1)COC(=O)c1ccccc1 (stereo not given) please.
A) > 31.2 µM (inactive)

Q) Tell me measured GI50 for O=c1c2cc3ccccc3n2c(=O)c2cc3ccccc3n12 please.
A) > 100 µM (inactive)

Q) Tell me measured GI50 for Clc1ccc(-c2nnc(-c3c(Cl)c(Cl)c(Cl)c(Cl)c3-c3nc4ccccc4[nH]3)o2)cc1 please.
A) 71.9 µM (inactive)

====

Test system: SK-MEL-28
Assay: NCI tumour cell line growth inhibition, 48 h
Activity calls are given as the source filed them. No stated cut-off is given here; in the data, active = GI50 up to about 1.1 µM and inactive = higher.
PARAMETER MEASURED: GI50

Q) Recall the reported GI50 of O=C1C(Cl)=C(N2CCN(c3ncccn3)CC2)C(=O)c2c(O)ccc(O)c21 on SK-MEL-28 and write it down.
A) 2.23 µM (inactive)

Q) Recall the reported GI50 of CCn1cc(C(=O)O)c(=O)c2ccc(C)nc21 [NALIDIXIC ACID] on SK-MEL-28 and write it down.
A) > 100 µM (inactive)

Q) Recall the reported GI50 of CCCCCCCCCCCC(=O)OCC1OC(n2cc(F)c(=O)[nH]c2=O)C(N)C(OC(=O)CCCCCCCCCCC)C1O (stereo unspecified) on SK-MEL-28 and write it down.
A) > 100 µM (inactive)

Q) Recall the reported GI50 of Nc1ccn(C2OC(COP(=O)(O)Oc3ccccc3)C(O)C2O)c(=O)n1 (stereo unspecified) on SK-MEL-28 and write it down.
A) 9.38 µM (inactive)

Q) Recall the reported GI50 of Cc1ccc2oc3c(c(Br)c(Br)n3C)c(=O)c2c1 on SK-MEL-28 and write it down.
A) > 100 µM (inactive)

Q) Recall the reported GI50 of COc1ccc(CCNC(=S)NC=C2C(=O)c3ccccc3C2=O)cc1OC on SK-MEL-28 and write it down.
A) > 100 µM (inactive)

Q) Recall the reported GI50 of NNC(=O)Nc1cccnc1 on SK-MEL-28 and write it down.
A) > 100 µM (inactive)

Q) Recall the reported GI50 of COc1ccccc1/C=C1\CCC(CN2CCOCC2)C1=O (stereo unspecified) on SK-MEL-28 and write it down.
A) 15.5 µM (inactive)

Q) Recall the reported GI50 of CCOC(=O)/N=c1\ss/c(=N\C(=S)N(C)C)n1-c1ccccc1 on SK-MEL-28 and write it down.
A) 1.82 µM (inactive)

Q) Recall the reported GI50 of Cc1nc2ccccc2c(=O)n1-c1ccccc1I on SK-MEL-28 and write it down.
A) > 100 µM (inactive)

Q) Recall the reported GI50 of O=c1c(/C=C/c2c(O)ccc3ccccc23)nnc2sc(-c3cccc([N+](=O)[O-])c3)nn12 on SK-MEL-28 and write it down.
A) > 100 µM (inactive)

====

System: OVCAR-5
Assay: NCI tumour cell line growth inhibition, 48 h
Active and inactive are the calls of the source. Cut-off read from the data, not from the text of the source: active = GI50 up to about 1.1 µM and inactive = higher.
Kindly supply the reported GI50 values for the records listed here.

Q) Tell me measured GI50 for Cc1cc2nc3c(C(OC4OC(CO)C(O)C(O)C4O)C(O)CO)nn(-c4ccc(F)cc4)c3nc2cc1C (stereo not given) please.
A) > 100 µM (inactive)

Q) Tell me measured GI50 for C=C(c1nc2ccc(Cl)cc2[nH]c1=O)C(O)c1ccc(C(O)C(=O)c2nc3ccc(Cl)cc3[nH]c2=O)cc1 (stereo not given) please.
A) > 100 µM (inactive)

Q) Tell me measured GI50 for COc1cc(/C=C/C(=O)O)ccc1OS(=O)(=O)O please.
A) > 100 µM (inactive)

Q) Tell me measured GI50 for C1=C(c2ccccc2)CN(c2ccccc2)OC1 please.
A) 26.8 µM (inactive)

Q) Tell me measured GI50 for COc1cccc(C2SCC(=O)N2c2ccc(-c3ccc(-n4c(-c5ccccc5)nc5ccccc5c4=O)cc3)cc2)c1OC (stereo not given) please.
A) > 100 µM (inactive)

Q) Tell me measured GI50 for O=C(O)CCSc1nnc(COc2ccc(Cl)cc2)n1-c1ccccc1 please.
A) > 100 µM (inactive)

Q) Tell me measured GI50 for Nc1ccn(C2OC(COP(=O)(O)Oc3ccccc3)C(O)C2O)c(=O)n1 (stereo not given) please.
A) > 100 µM (inactive)

Q) Tell me measured GI50 for COc1cccc2cc(C(=O)Nc3ccccn3)c(=N)oc12 please.
A) > 100 µM (inactive)

Q) Tell me measured GI50 for CCCC/C=C/C=C/C=C/CCCCCCCC(=O)OCC(COC(=O)CCCCCCC/C=C/C1C=CC(CCCC)C(C(=O)O)C1C(=O)O)OC(=O)CCCCCCC/C=C/C=C/C=C/CCCC.OCCNCO (stereo not given) please.
A) 20.2 µM (inactive)

Q) Tell me measured GI50 for O=c1ccc2[n+]([O-])c3ccc(O)cc3oc-2c1 please.
A) 23.6 µM (inactive)

====

Tested on: NCI-H522
Experiment: NCI tumour cell line growth inhibition, 48 h
Active and inactive are the calls of the source. No stated cut-off is given here; in the data, active = GI50 up to about 1.1 µM and inactive = higher.
The reply should be one of these categories: active, inactive

Q) Dear all, I need the recorded test outcome for CC(C)C(=O)CC(Sc1ccc(N)cc1)c1ccccc1 (configuration not stated) , thank you.
A) inactive

Q) Dear all, I need the recorded test outcome for CN(C)/C=C/c1c2c(nc3ccccc13)C(=O)c1ccccc1C2=O , thank you.
A) inactive

Q) Dear all, I need the recorded test outcome for COc1nc(C(Cl)(Cl)Cl)c(Cl)c(O)c1Cl , thank you.
A) inactive

Q) Dear all, I need the recorded test outcome for Cc1cc2nc3c(C(OC4OC(CO)C(O)C(O)C4O)C(O)CO)nn(-c4ccc(F)cc4)c3nc2cc1C (configuration not stated) , thank you.
A) inactive

Q) Dear all, I need the recorded test outcome for CC1=C(/C=C/C(C)=C/C=C/C(C)=C/C(=O)OC2CC(n3cc(F)c(=O)[nH]c3=O)OC2CO)C(C)(C)CCC1 (configuration not stated) , thank you.
A) inactive

Q) Dear all, I need the recorded test outcome for O=C(c1ccccc1)C1(Br)S(=O)(=O)OCCOS1(=O)=O , thank you.
A) inactive

Q) Dear all, I need the recorded test outcome for COc1cc(CC2CCc3nc(N)nc(N)c3C2)cc(OC)c1OC (configuration not stated) , thank you.
A) active

Q) Dear all, I need the recorded test outcome for Clc1ccc(-c2nnc(-c3c(Cl)c(Cl)c(Cl)c(Cl)c3-c3nc4ccccc4[nH]3)o2)cc1 , thank you.
A) inactive

Q) Dear all, I need the recorded test outcome for C=C1COC(O)(C2OCOC(C3CC(=O)NC(=O)C3)C2O)C1C (configuration not stated) , thank you.
A) active

Q) Dear all, I need the recorded test outcome for C[Si](C)(C)C1=C([Si](C)(C)C)C(Cl)(Cl)C1=O , thank you.
A) inactive

Q) Dear all, I need the recorded test outcome for Brc1ccc2[nH]cc(-c3csc(-c4c[nH]c5ccc(Br)cc45)n3)c2c1 , thank you.
A) inactive

Q) Dear all, I need the recorded test outcome for COc1ccc(N2C(=O)C(=O)N(C)C2=O)c2ccccc12 , thank you.
A) inactive

Q) Dear all, I need the recorded test outcome for CC1CC2C(=O)N(c3ccccc3)C(=O)C2c2c1c1ccccc1n2Cc1ccccc1 (configuration not stated) , thank you.
A) inactive

Q) Dear all, I need the recorded test outcome for O=C1Oc2ccccc2C(=O)/C1=C/N1C(=O)/C(=C/c2ccc3c(c2)OCO3)SC1=S , thank you.
A) inactive

Q) Dear all, I need the recorded test outcome for O=C(O)CCSc1nnc(COc2ccc(Cl)cc2)n1-c1ccccc1 , thank you.
A) inactive

Q) Dear all, I need the recorded test outcome for Clc1ccccc1-c1nc(-c2ccncc2)no1 [PIFEXOLE] , thank you.
A) inactive

Q) Dear all, I need the recorded test outcome for CC(=O)OC(/C=C1/C=CC(=O)O1)COC(=O)c1ccccc1 (configuration not stated) , thank you.
A) inactive

Q) Dear all, I need the recorded test outcome for CN1C(=O)c2ccccc2NC(=O)c2cnn(C)c21 , thank you.
A) inactive

Q) Dear all, I need the recorded test outcome for COc1ccc(/C=C2\SC(c3ccc(OC)cc3)N(NC(=O)Cc3ccccc3)C2=O)cc1 (configuration not stated) , thank you.
A) inactive

Q) Dear all, I need the recorded test outcome for O=CCCCC(Sc1ccccc1)Sc1ccccc1 , thank you.
A) inactive

Q) Dear all, I need the recorded test outcome for N#Cc1c(O)c(/C=N/c2ncccn2)c(=O)n2c1[nH]c1ccccc12 , thank you.
A) inactive

Q) Dear all, I need the recorded test outcome for CC(=O)c1nc(C#N)c(N)o1 , thank you.
A) inactive

These data points were gathered from ChEMBL document CHEMBL1201862.
